Test system: MDA-MB-468 breast
Assay: NCI tumour cell line growth inhibition, 48 h
measured_metric: TGI (µM)
API: value field is a number in µM; no unit string.

TGI reported for this compound "CN1CCN(C(=O)/C=C/c2ccc([N+](=O)[O-])o2)CC1" : 28.5

TGI reported for this compound "COc1cc(NC(=O)COc2ccccc2)c(C(N)=O)cc1OC" : 72.1

TGI reported for this compound O=S(=O)(Nc1ccccc1)c1ccc(C2CC3(Cl)C(Cl)=C(Cl)C2(Cl)C3(Cl)Cl)cc1 (configuration not stated) : 7.86

TGI reported for this compound "CCN1CCN(CC(=O)Nc2nc3ccc(NCc4ccc(Br)cc4)cc3s2)CC1" : 4.51

TGI reported for this compound "CC[C@]12C=CCN3CC[C@@]4(c5ccc(OC)cc5N(C)[C@H]4[C@@](O)(C(=O)OC)[C@@H]1OC(=O)CCCN1CCN(CCCC(=O)O[C@@H]4[C@]5(CC)C=CCN6CC[C@@]7(c8ccc(OC)cc8N(C)[C@H]7[C@@]4(O)C(=O)OC)[C@@H]65)CC1)[C@@H]32" : 0.73

TGI reported for this compound "C/C(=C\c1csc(C)n1)[C@@H]1C[C@@H]2O[C@]2(C)CCC[C@H](C)[C@H](O)[C@@H](C)C(=O)C(C)(C)[C@@H](O)CC(=O)N1" : 0.00058

###

Test system: HOP-92 NSCLC
Experiment: NCI tumour cell line growth inhibition, 48 h
measured_metric: TGI

TGI reported for this compound "COc1cccc(C(N)=Nc2ccc(OCCCCCCCCn3cncn3)cc2)c1" : 30.2 µM

TGI reported for this compound "O=C1Nc2cc(Cl)ccc2/C1=C/c1cccc(OCc2ccccn2)c1" : 8.15 µM

TGI reported for this compound "CS(=O)(=O)Nc1ccc(-c2ccc3c(c2)ncn3-c2ccc(NC(=O)Nc3ccc(Cl)c(C(F)(F)F)c3)cc2)cc1" : 8.67 µM

TGI reported for this compound COc1cc2c(c(OC)c1OC)C(=O)CC(c1cccc(NC(=O)c3cccc([N+](=O)[O-])c3)c1)O2 (centres undefined) : > 100 µM

###

Test system: MALME-3M melanoma
Assay: NCI tumour cell line growth inhibition, 48 h; in the data active = GI50 below about 0.43 µM; inactive = the rest
Permitted responses: class 1 = active, class 0 = inactive

-- ask Status in this test for "COc1ccc(-c2nnc3c(/C=C/c4ccc(Br)cc4)nc4ccccc4n23)cc1" ?
-- reply class 0

-- ask Status in this test for "COc1cccc(C(N)=Nc2ccc(OCCCCCCCCn3cncn3)cc2)c1" ?
-- reply class 1

-- ask Status in this test for "O=C1Nc2cc(Cl)ccc2/C1=C/c1cccc(OCc2ccccn2)c1" ?
-- reply class 0

-- ask Status in this test for "CS(=O)(=O)Nc1ccc(-c2ccc3c(c2)ncn3-c2ccc(NC(=O)Nc3ccc(Cl)c(C(F)(F)F)c3)cc2)cc1" ?
-- reply class 0

###

Test system: MDA-MB-468 breast
Assay: NCI tumour cell line growth inhibition, 48 h; in the data active = GI50 below about 0.43 µM; inactive = the rest
Permitted responses: active, inactive

-- ask Status in this test for "COc1ccc(-c2nnc3c(/C=C/c4ccc(Br)cc4)nc4ccccc4n23)cc1" ?
-- reply inactive

-- ask Status in this test for "Cc1cccc(Oc2ccc(Nc3ncnc4ccc(NC(=O)CN(C)C)cc34)cc2Cl)c1" ?
-- reply active

-- ask Status in this test for "CN1CCN(c2ccc(NC(=O)Nc3ccc4c(ccn4-c4cccc(C(N)=O)n4)c3)cc2C(F)(F)F)CC1" ?
-- reply inactive

-- ask Status in this test for "O=C(O)CSc1cc(NS(=O)(=O)c2ccc(Br)cc2)c2ccccc2c1O" ?
-- reply inactive

-- ask Status in this test for "COc1ccccc1CNCCCN1C(=O)c2ccc3c4c(ccc(c24)C1=O)C(=O)N(CCCNCc1ccccc1OC)C3=O" ?
-- reply active

-- ask Status in this test for "COc1ccc(-n2c(=O)c3ccccc3n(Cc3ccc(C(=O)NO)cc3)c2=O)cc1" ?
-- reply inactive

###

Test system: SR leukemia
Test: NCI tumour cell line growth inhibition, 48 h; in the data active = GI50 below about 0.43 µM; inactive = the rest
Permitted responses: active, inactive

-- ask Status in this test for "COc1cccc(C(N)=Nc2ccc(OCCCCCCCCn3cncn3)cc2)c1" ?
-- reply active

-- ask Status in this test for "O=C1Nc2cc(Cl)ccc2/C1=C/c1cccc(OCc2ccccn2)c1" ?
-- reply inactive

-- ask Status in this test for "COc1ccc(-c2nnc3c(/C=C/c4ccc(Br)cc4)nc4ccccc4n23)cc1" ?
-- reply inactive

-- ask Status in this test for COc1cc2c(c(OC)c1OC)C(=O)CC(c1cccc(NC(=O)c3cccc([N+](=O)[O-])c3)c1)O2 (centres undefined) ?
-- reply inactive

###

Tested on: CCRF-CEM leukemia
Assay: NCI tumour cell line growth inhibition, 48 h
measured_metric: GI50

GI50 reported for this compound "COc1ccc(-c2nnc3c(/C=C/c4ccc(Br)cc4)nc4ccccc4n23)cc1" : 1.39 µM

GI50 reported for this compound "O=C1Nc2cc(Cl)ccc2/C1=C/c1cccc(OCc2ccccn2)c1" : 3.1 µM

GI50 reported for this compound COc1cc2c(c(OC)c1OC)C(=O)CC(c1cccc(NC(=O)c3cccc([N+](=O)[O-])c3)c1)O2 (centres undefined) : 3.44 µM

GI50 reported for this compound "CS(=O)(=O)Nc1ccc(-c2ccc3c(c2)ncn3-c2ccc(NC(=O)Nc3ccc(Cl)c(C(F)(F)F)c3)cc2)cc1" : 2.72 µM
